Consider the following Ki values measured on Human immunodeficiency virus type 1 protease (Human immunodeficiency virus 1).

compound	units.symbol	Ki
COC(=O)CNC(=O)C(c1ccccc1)N1C(=O)CC1C(=O)OCc1ccccc1 (stereo not drawn)	µM	1140
COC(=O)C(Cc1ccccc1)NC(=O)C1C(O)C(=O)N1C(C(=O)NCC1N=Cc2cncnc21)c1ccccc1 (stereo not drawn)	µM	63.2
O=C(OCc1ccccc1)C1CC(=O)N1C(C(=O)NCC1N=Cc2cncnc21)c1ccccc1 (stereo not drawn)	µM	60.3

====

# assay.target: Human immunodeficiency virus type 1 protease (Human immunodeficiency virus 1) (UniProt Q72874)
# assay.explanation: Percent inhibition against human immunodeficiency virus 1 protease
# Design: concentration or dose not given beside the values
# recorded.conditions: concentration not given here
measured.attribute: inhibition (%)

molecule	measured.attribute	units.symbol	reported.result
CC1CC(=O)N1C(C(=O)NCc1ccccc1)c1ccccc1 (stereo unspecified)	inhibition	%	67
CC1CN(C(C(=O)NCC2N=Cc3cncnc32)c2ccccc2)C1=O (stereo unspecified)	inhibition	%	76
CCCCNC(=O)C(c1ccccc1)N1C(=O)CC1c1ccccc1 (stereo unspecified)	inhibition	%	63
CC1CC(=O)N1C(Cc1ccccc1)C(=O)NCC1CCCCC1 (stereo unspecified)	inhibition	%	71
CC(C)CNC(=O)C(Cc1ccccc1)N1CC(C)C1=O (stereo unspecified)	inhibition	%	72
CCCCNC(=O)C(c1ccccc1)N1C(=O)CC1C(=O)NC(Cc1ccccc1)C(=O)OC (stereo unspecified)	inhibition	%	86
CC1CC(=O)N1C(C(=O)NCC1CCCCC1)c1ccccc1 (stereo unspecified)	inhibition	%	83
CC1CC(=O)N1C(Cc1ccccc1)C(=O)NCC1C=Nc2cncnc21 (stereo unspecified)	inhibition	%	62
O=C(NCc1ccccc1)C(c1ccccc1)N1C(=O)CC1c1ccccc1 (stereo unspecified)	inhibition	%	75
O=C(NCC1N=Cc2cncnc21)C(c1ccccc1)N1CCC1=O (stereo unspecified)	inhibition	%	68
O=C(NCC1N=Cc2cncnc21)C(Cc1ccccc1)N1C(=O)CC1C(=O)OCc1ccccc1 (stereo unspecified)	inhibition	%	66
